These measurements were taken from patent US6835726B2.

Test system: recombinant human cytomegalovirus (HCMV)
Assay: microbe, parasite or virus in culture
Type: cell-based
Conditions: CMV assay, Table 2; read-out: Antiviral Activity
Experimental: Certain preferred compounds and compositions are capable of specifically inhibiting or suppressing cytomegalovirus infection. […] Compounds that were evaluated for anti-HCMV activity were added to the infected cells 1 hour later. The level of luciferase expression was measured 24 hours after treatment with the test compounds. […] As an additional control, the cytotoxicity of test compounds on untreated HFF cells was also evaluated in cultured cell growth experiments.
pIC50: −log10 of the molar value.
# pIC50 annotations
measure name: pIC50

>  <substance smiles>
Cc1cccc(CNc2nc(C)c([N+](=O)[O-])c(-n3ccnc3C)n2)c1

>  <measure name>
pIC50

>  <recorded measurement>
6.30 to 7.00

$$$$
>  <substance smiles>
CCc1nccn1-c1nc(NCc2c(F)cccc2Cl)nc(C)c1[N+](=O)[O-]

>  <measure name>
pIC50

>  <recorded measurement>
6.30 to 7.00

$$$$
>  <substance smiles>
Cc1nc(NCc2cccnc2)nc(-n2ccnc2C)c1[N+](=O)[O-]

>  <measure name>
pIC50

>  <recorded measurement>
< 6.30

$$$$
>  <substance smiles>
COc1cccc(CNc2nc(C)c([N+](=O)[O-])c(-n3ccnc3C)n2)c1

>  <measure name>
pIC50

>  <recorded measurement>
6.30 to 7.00

$$$$
>  <substance smiles>
Cc1nc(NCc2cc(C(F)(F)F)ccc2F)nc(-n2ccnc2C)c1[N+](=O)[O-]

>  <measure name>
pIC50

>  <recorded measurement>
> 7.00

$$$$
